# System: IGROV1
# ASSAY PROCEDURE: NCI-60 one-dose screen
# Type: cell-based
# TEST CONTEXT: Homo sapiens, IGROV-1; IGROV1, Ovarian Cancer panel; single dose 10^−5 M; read-out: Growth inhibition %
Assign YES whenever inhibition at 10 µM does not fall below 70%; assign NO whenever it does.

In [3]: df
Out[3]:
                             smiles_text  category_label
0  Cc1ccc2nc3ccccc3c(NCc3ccc(Cl)cc3)c2c1             YES
1   COc1ccc(CNc2c3ccccc3nc3ccccc23)cc1OC             YES
2        Fc1ccccc1CNc1c2ccccc2nc2ccccc12              NO
3     COc1ccc(CNc2c3ccccc3nc3ccccc23)cc1             YES
4      Cc1ccc(CNc2c3ccccc3nc3ccccc23)cc1             YES

Decide: is the reported value of inhibition at 10 µM for COc1ccc2nc3ccccc3c(NCc3ccc(C)cc3)c2c1 equal to or greater than 70%?
YES

All figures here come from paper PMC9866191.
